protocol text: dissolution of the 11β-aminoester salts in aqueous acid (Table 5 and Examples 101, 225-229)
Assay type: physicochemical
reported conditions: method B: further acid added, undissolved material weighed; WT. of solution 10 g, except Ex. 130 and 141: 9.2; 142: 9.23; 143, 144, 189 and 199: 9.8; 149: 10.6; 153: 7.9; 162 and 188: 9.5; 163: 68; 166: 10.4; 168: 10.7; 169: 10.9; 183: 8.05; 184 and 201: 9.83; 185: 7.1; 186: 9.3; 192: 10.07; 193: 6.4; 195: 6.8; 196: 7; 197: 7.2; 200: 10.1; 206: 15 g
Quick rule: Dissolved aminoester of at least 90 mg means YES, below that means NO.

>>> class("CC(=O)C1CCC2C3CCC4CC(O)C(C)CC4(C)C3C(OC(=O)CN3CCC(C)CC3)CC12C (stereo not shown) [Example 175]")
"YES"
>>> class("CCN(CC(=O)O[C@H]1C[C@]2(C)[C@@H](C(C)=O)CC[C@H]2[C@@H]2CC[C@H]3C[C@H](O)CC[C@]3(C)[C@H]21)C(C)CC(C)C (stereo partly shown) [Example 197]")
"NO"
>>> class("CCOC1CC2(C)C(CCC3C4CCC(C(C)=O)C4(C)CC(OC(=O)CNC(C)CC(C)C)C32)CC1O (stereo not shown) [Example 166]")
"YES"
>>> class("CCCCN(CC)CC(=O)OC1CC2(C)C(C(C)=O)CCC2C2CCC3CC(O)C(C)CC3(C)C12 (stereo not shown) [Example 174]")
"YES"
>>> class("CC(=O)[C@H]1CC[C@H]2[C@@H]3CC[C@H]4C[C@H](O)CC[C@]4(C)[C@H]3[C@@H](OC(=O)CNC(C(C)C)C(C)C)C[C@]12C [Example 144]")
"NO"
>>> class("CCCCN(C)CC(=O)O[C@H]1C[C@]2(C)[C@@H](C(C)=O)CC[C@H]2[C@@H]2CC[C@H]3C[C@H](O)[C@@H](Br)C[C@]3(C)[C@H]21 [Example 207]")
"NO"
>>> class("CCCCOC1CC2(C)C(CCC3C4CCC(C(C)=O)C4(C)CC(OC(=O)CN(C)CCCC)C32)CC1O (stereo not shown) [Example 168]")
"NO"
>>> class("CCC(C)CN(C)CC(=O)O[C@H]1C[C@]2(C)[C@@H](C(C)=O)CC[C@H]2[C@@H]2CC[C@H]3C[C@H](O)CC[C@]3(C)[C@H]21 (stereo partly shown) [Example 186]")
"NO"
>>> class("CC(=O)[C@H]1CC[C@H]2[C@@H]3CC[C@H]4C[C@H](O)CC[C@]4(C)[C@H]3[C@@H](OC(=O)CN(C)C(C)CCC(C)C)C[C@]12C (stereo partly shown) [Example 192]")
"YES"
>>> class("CCC(C)N(C)CC(=O)O[C@H]1C[C@]2(C)[C@@H](C(C)=O)CC[C@H]2[C@@H]2CC[C@H]3C[C@H](O)CC[C@]3(C)[C@H]21 (stereo partly shown) [Example 184]")
"YES"
>>> class("CC(=O)C1CCC2C3CCC4CC(O)CCC4(C)C3C(OC(=O)CNC(C)CC(C)C)CC12C (stereo not shown) [Example 162]")
"NO"
>>> class("CCCCCN(C)CC(=O)O[C@H]1C[C@]2(C)[C@@H](C(C)=O)CC[C@H]2[C@@H]2CC[C@H]3C[C@H](O)CC[C@]3(C)[C@H]21 [Example 185]")
"NO"
